biological target: (K229C,E302C)PBP labeled with 6-IATR (PstS phosphate binding protein) (Escherichia coli, UniProt P0AG82, E327C/G165A/K254C); assay: fluorescence titration of rhodamine-labelled protein
Sequence (P0AG82 26-346 G165A/K254C/E327C): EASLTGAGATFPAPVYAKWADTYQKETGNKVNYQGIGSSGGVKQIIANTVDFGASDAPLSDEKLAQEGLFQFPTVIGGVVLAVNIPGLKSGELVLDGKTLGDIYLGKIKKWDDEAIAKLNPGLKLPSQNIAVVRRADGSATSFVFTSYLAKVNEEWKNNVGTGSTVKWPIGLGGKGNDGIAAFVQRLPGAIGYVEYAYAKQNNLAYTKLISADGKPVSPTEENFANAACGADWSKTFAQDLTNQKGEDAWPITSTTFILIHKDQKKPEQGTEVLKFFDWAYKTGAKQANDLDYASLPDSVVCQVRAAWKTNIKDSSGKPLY
parameter.measured: pKd
Answers are plain numbers, as −log10 of the molar value.

INPUT: Entry under review: O=P(O)(O)O [inorganic phosphate] . Reported pKd?
OUTPUT: 3.66

---

target: rho-PBP: (A17C,A197C)PBP labeled with 6-IATR (PstS phosphate binding protein) (Escherichia coli, UniProt P0AG82, A222C/A42C/G165A); test: fluorescence titration of rhodamine-labelled protein
Sequence (P0AG82 26-346 A42C/G165A/A222C): as the sequence (P0AG82 26-346 G165A/K254C/E327C) above, with A17C, A197C, C229K, C302E counted along it
parameter.measured: pKd
One number for each entry, as −log10 of the molar value.

INPUT: Entry under review: O=P(O)(O)O [inorganic phosphate] . Reported pKd?
OUTPUT: 4.15

---

target: rho-PBP: (A17C,A197C)PBP labeled with 6-IATR (PstS phosphate binding protein) (Escherichia coli, UniProt P0AG82, A222C/A42C/G165A/S189K/S64D); test: fluorescence titration of rhodamine-labelled protein
parameter.measured: pKd
Answers are plain numbers, as −log10 of the molar value.

INPUT: Entry under review: O=P(O)(O)O [inorganic phosphate] . Reported pKd?
OUTPUT: 4.40
